- System: effects of serotonin in the gastric lesion test
- ASSAY NOTES: Antagonistic activity on the effects of serotonin in the gastric lesion test (lesions induced by compound 48/80)
- Assay type: in vivo, rat (male, Wistar inbred strain)
- APPLIED CONDITIONS: Rattus norvegicus, read-out: gastric lesion test ED50
QUANTITY KIND: ED50 (mg/kg)
Dear colleague, please return just the value in mg/kg, with no unit written.

Fc1ccc(Cn2c(NC3CCN(CCNc4nccs4)CC3)nc3ccccc32)cc1 [Compound 58] = 0.04
Cc1sc(N)nc1CCN1CCC(Nc2nc3ccccc3n2Cc2ccc(F)cc2)CC1 [Compound 94] = 0.08
Fc1ccc(Cn2c(NC3CCN(CCNc4ncc[nH]4)CC3)nc3ccccc32)cc1 [Compound 79] = 0.04

# ED50 of Cc1csc(NCCN2CCC(Nc3nc4ccccc4n3Cc3ccc(F)cc3)CC2)n1 [Compound 85] = 0.04

# ED50 of Nc1nnc(NCCN2CCC(Nc3nc4ccccc4n3Cc3ccc(F)cc3)CC2)s1 [Compound 18] = 0.04

# ED50 of Cn1ccnc1SCCN1CCC(Nc2nc3ccccc3n2Cc2ccc(F)cc2)CC1 [Compound 75] = 0.08

Data provenance: patent US4634704A
